Target: hFAAH (Homo sapiens)
Construct: expressed in transfected cells; host or cells: HEK293-TRex (Invitrogen) stably transfected with hFAAH in the pcDNA5-Tet-off vector, or T84 human colon epithelial cells (endogenous hFAAH); used as a microsomal preparation
Sequence (O00519 1-579): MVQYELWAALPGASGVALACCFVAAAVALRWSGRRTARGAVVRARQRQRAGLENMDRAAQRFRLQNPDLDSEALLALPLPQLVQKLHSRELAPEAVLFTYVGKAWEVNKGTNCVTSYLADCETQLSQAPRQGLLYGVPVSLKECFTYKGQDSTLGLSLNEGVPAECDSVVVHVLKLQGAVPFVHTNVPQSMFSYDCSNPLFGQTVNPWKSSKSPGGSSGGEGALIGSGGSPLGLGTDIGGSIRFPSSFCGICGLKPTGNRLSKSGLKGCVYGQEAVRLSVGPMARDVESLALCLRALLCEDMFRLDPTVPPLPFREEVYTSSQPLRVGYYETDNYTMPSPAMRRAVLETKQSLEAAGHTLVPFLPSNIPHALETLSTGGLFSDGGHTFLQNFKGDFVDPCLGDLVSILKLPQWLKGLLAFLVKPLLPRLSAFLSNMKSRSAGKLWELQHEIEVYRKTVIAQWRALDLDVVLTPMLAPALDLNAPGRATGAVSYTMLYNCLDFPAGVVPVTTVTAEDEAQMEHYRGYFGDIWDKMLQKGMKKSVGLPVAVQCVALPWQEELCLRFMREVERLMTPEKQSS
Assay: Fluorimetric assay with hFAAH microsomes (enzymatic, fluorescence based)
Format: biochemical
Conditions: compound at 1 uM, AA-AMC substrate
Would you kindly list inhibition at 1 µM for each of these compounds?

Quick one: inhibition at 1 µM of c1ccc2ncc(Nc3ncnc4c3CN(Cc3cncs3)C4)cc2c1 [Compound 81] ?
> 25%

Try the compound Cc1nc(C)c(C(=O)N2Cc3ncnc(Nc4cnc5ccccc5c4)c3C2)s1 [Compound 49]
> 50%

Try the compound CN1CCC(CN2Cc3ncnc(Nc4cnc5ccccc5c4)c3C2)CC1 [Compound 27]
< 25%

Try the compound Cc1ccsc1S(=O)(=O)N1Cc2ncnc(Nc3cnc4ccccc4c3)c2C1 [Compound 56]
> 25%

Try the compound c1ccc2ncc(Nc3ncnc4c3CN(C3CCCCC3)C4)cc2c1 [Compound 23]
> 25%

Try the compound CSc1ccccc1CN1Cc2ncnc(Nc3cnc4ccccc4c3)c2C1 [Compound 102]
> 75%

Try the compound c1ccc2ncc(Nc3ncnc4c3CN(CC3CCOC3)C4)cc2c1 (stereo not shown) [Compound 13]
> 25%

Try the compound Cc1ncccc1CN1Cc2ncnc(Nc3cnc4ccccc4c3)c2C1 [Compound 17]
> 75%

Try the compound O=S(=O)(c1ccc(F)cc1F)N1Cc2ncnc(Nc3cnc4ccccc4c3)c2C1 [Compound 58]
> 25%

Try the compound CCOc1ccccc1CN1Cc2ncnc(Nc3cnc4ccccc4c3)c2C1 [Compound 100]
> 75%

Try the compound c1ccc2ncc(Nc3ncnc4c3CN(Cc3cscn3)C4)cc2c1 [Compound 75]
> 25%

Try the compound CC(CN1Cc2ncnc(Nc3cnc4ccccc4c3)c2C1)c1ccccc1 (stereo not shown) [Compound 19]
> 75%

Try the compound Fc1cccc(CN2Cc3ncnc(Nc4cnc5ccccc5c4)c3C2)c1F [Compound 107]
> 75%

Try the compound O=S(=O)(C1CCCC1)N1Cc2ncnc(Nc3cnc4ccccc4c3)c2C1 [Compound 57]
> 25%

Try the compound CCC(C)N1Cc2ncnc(Nc3cnc4ccccc4c3)c2C1 (stereo not shown) [Compound 35]
< 25%

Try the compound c1cc2c(c(CN3Cc4ncnc(Nc5cnc6ccccc6c5)c4C3)c1)OCC2 [Compound 101]
> 75%

Try the compound Cc1cccnc1CN1Cc2ncnc(Nc3cnc4ccccc4c3)c2C1 [Compound 79]
< 25%

Try the compound O=S(=O)(c1ccccc1)N1Cc2ncnc(Nc3cnc4ccccc4c3)c2C1 [Compound 65]
> 25%

Try the compound c1ccc2ncc(Nc3ncnc4c3CN(CC3CCCCC3)C4)cc2c1 [Compound 2]
> 75%
